experimental target: Mitogen-activated protein kinase kinase kinase kinase 1 (Homo sapiens, UniProt Q92918); note: in the data inactive means no Kd found up to 30 µM
Sequence (Q92918 whole entry): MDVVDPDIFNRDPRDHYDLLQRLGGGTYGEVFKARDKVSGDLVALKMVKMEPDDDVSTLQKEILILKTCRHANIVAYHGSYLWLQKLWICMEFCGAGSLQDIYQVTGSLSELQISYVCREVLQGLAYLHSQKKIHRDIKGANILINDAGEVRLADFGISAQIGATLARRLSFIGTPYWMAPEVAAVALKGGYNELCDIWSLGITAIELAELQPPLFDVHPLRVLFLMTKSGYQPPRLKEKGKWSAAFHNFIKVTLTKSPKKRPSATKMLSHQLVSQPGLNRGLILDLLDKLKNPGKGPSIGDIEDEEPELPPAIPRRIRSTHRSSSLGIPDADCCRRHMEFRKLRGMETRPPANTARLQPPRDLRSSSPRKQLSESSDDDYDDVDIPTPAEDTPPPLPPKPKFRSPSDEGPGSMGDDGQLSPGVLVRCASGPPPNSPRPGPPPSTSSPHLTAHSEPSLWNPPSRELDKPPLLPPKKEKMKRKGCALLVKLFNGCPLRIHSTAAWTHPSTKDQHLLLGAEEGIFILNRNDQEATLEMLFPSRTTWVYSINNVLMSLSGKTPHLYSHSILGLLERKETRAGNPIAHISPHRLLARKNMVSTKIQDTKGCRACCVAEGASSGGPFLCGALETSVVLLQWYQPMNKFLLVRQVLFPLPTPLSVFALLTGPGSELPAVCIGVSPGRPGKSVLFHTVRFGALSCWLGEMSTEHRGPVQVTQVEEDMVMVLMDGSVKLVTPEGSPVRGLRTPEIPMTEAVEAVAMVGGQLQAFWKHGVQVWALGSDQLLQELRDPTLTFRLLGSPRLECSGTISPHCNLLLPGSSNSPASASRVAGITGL
Activity calls are given as the source filed them.
Choose one outcome from this list and give only that: active, inactive

[
  {
    "compound": "COc1cc(N2CCC(N3CCN(C)CC3)CC2)ccc1Nc1ncnc(Nc2ccccc2S(=O)(=O)C(C)C)n1 [ASP-3026]",
    "assigned category": "inactive"
  },
  {
    "compound": "CNC(=O)c1cc(Oc2ccc(NC(=O)Nc3ccc(Cl)c(C(F)(F)F)c3)c(F)c2)ccn1 [REGORAFENIB]",
    "assigned category": "inactive"
  },
  {
    "compound": "COC(=O)[C@@]1(O)C[C@H]2O[C@]1(C)n1c3ccccc3c3c4c(c5c6ccccc6n2c5c31)C(=O)NC4 [K-252A]",
    "assigned category": "active"
  }
]

Note: attention shifts to another entry.
QUERY: Tell me the assay call for CN(C)C(=O)c1cc2cnc(Nc3ccc(N4CCNCC4)cn3)nc2n1C1CCCC1 [RIBOCICLIB] please.
RESULT: inactive

###

Below are compounds with their Kd as measured on cAMP-dependent protein kinase catalytic subunit beta (Homo sapiens, UniProt P22694).
Calls of active or inactive are those of the source.

# annotated cases, reported Kd shown
[
  {
    "compound": "OCCn1cc(-c2cnc3nnn(Cc4ccc5ncccc5c4)c3n2)cn1",
    "result": "> 30 µM (inactive)"
  },
  {
    "compound": "CN1N=C(N)c2cn([C@@H]3O[C@H](COP(=O)(O)O)[C@@H](O)[C@H]3O)c3ncnc1c23 [TRICIRIBINE PHOSPHATE]",
    "result": "> 30 µM (inactive)"
  }
]

Note: attention shifts to another entry.
QUERY: What value of Kd on cAMP-dependent protein kinase catalytic subunit beta (Homo sapiens, UniProt P22694) does COCCNCc1ccc(-c2cc3nccc(Oc4ccc(NC(=S)NC(=O)Cc5ccc(F)cc5)cc4F)c3s2)nc1 have?
RESULT: > 30 µM (inactive)

###

Below are molecules with their Kd as measured on DNA topoisomerase 2-alpha (Homo sapiens).
Sequence (P11388 whole entry): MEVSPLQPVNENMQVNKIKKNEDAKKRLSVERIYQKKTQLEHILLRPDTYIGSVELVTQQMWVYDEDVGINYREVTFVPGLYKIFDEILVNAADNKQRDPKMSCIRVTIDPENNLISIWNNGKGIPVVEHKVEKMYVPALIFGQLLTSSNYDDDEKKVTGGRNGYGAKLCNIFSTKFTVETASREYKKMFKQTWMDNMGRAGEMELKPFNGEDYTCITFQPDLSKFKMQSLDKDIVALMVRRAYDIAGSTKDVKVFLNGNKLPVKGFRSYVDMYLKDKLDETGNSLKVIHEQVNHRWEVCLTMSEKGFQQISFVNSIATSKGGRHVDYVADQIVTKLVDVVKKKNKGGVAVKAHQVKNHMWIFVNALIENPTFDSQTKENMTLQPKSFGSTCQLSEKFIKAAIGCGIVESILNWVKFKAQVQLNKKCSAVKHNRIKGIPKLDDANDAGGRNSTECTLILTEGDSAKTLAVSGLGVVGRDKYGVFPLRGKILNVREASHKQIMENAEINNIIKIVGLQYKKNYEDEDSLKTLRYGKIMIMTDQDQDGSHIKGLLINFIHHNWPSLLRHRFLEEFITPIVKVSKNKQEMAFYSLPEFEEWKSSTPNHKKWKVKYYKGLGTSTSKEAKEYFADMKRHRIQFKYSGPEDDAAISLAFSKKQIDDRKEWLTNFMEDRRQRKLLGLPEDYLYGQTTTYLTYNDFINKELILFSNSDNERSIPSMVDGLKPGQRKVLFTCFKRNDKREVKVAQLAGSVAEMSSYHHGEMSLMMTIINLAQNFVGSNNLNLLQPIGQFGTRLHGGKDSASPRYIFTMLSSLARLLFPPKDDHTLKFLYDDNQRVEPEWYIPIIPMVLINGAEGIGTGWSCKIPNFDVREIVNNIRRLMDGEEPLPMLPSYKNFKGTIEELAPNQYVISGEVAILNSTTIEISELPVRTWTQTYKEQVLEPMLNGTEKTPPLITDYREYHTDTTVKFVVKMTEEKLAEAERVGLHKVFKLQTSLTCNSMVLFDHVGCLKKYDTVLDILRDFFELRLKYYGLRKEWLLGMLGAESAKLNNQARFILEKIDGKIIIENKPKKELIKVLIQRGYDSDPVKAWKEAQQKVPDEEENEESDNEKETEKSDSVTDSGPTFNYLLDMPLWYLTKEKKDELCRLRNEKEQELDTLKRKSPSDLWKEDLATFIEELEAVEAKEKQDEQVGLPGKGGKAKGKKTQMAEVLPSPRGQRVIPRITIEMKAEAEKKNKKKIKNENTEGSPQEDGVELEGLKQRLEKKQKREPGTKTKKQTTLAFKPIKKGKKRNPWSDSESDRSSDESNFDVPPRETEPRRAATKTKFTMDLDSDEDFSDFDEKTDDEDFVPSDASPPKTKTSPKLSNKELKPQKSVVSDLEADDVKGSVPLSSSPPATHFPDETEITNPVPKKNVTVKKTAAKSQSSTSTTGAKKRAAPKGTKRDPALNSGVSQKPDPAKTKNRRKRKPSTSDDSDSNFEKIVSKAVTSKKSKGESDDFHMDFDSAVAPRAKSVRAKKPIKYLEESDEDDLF
Activity calls are given as the source filed them.

# annotated cases, reported Kd shown
[
  {
    "molecule": "C[C@@H](Nc1cc(F)cc(F)c1)c1cc(C(=O)N(C)C)cc2c(=O)cc(N3CCOCC3)oc12 [AZD-8186]",
    "result": "> 30 µM (inactive)"
  },
  {
    "molecule": "CNS(=O)(=O)Nc1nccc(Cc2c(C)c3ccc(Oc4ncccn4)cc3oc2=O)c1F [AVUTOMETINIB]",
    "result": "> 30 µM (inactive)"
  }
]

Note: attention shifts to another entry.
QUERY: What value of Kd on DNA topoisomerase 2-alpha (Homo sapiens) does Cc1c(F)cc(C(=O)NC2CC2)cc1-c1ccc(C(=O)NCC(C)(C)C)cn1 [LOSMAPIMOD] have?
RESULT: > 30 µM (inactive)

###

experimental target: DNA topoisomerase 2-beta (Homo sapiens); note: in the data inactive means no Kd found up to 30 µM
Sequence (Q02880 whole entry): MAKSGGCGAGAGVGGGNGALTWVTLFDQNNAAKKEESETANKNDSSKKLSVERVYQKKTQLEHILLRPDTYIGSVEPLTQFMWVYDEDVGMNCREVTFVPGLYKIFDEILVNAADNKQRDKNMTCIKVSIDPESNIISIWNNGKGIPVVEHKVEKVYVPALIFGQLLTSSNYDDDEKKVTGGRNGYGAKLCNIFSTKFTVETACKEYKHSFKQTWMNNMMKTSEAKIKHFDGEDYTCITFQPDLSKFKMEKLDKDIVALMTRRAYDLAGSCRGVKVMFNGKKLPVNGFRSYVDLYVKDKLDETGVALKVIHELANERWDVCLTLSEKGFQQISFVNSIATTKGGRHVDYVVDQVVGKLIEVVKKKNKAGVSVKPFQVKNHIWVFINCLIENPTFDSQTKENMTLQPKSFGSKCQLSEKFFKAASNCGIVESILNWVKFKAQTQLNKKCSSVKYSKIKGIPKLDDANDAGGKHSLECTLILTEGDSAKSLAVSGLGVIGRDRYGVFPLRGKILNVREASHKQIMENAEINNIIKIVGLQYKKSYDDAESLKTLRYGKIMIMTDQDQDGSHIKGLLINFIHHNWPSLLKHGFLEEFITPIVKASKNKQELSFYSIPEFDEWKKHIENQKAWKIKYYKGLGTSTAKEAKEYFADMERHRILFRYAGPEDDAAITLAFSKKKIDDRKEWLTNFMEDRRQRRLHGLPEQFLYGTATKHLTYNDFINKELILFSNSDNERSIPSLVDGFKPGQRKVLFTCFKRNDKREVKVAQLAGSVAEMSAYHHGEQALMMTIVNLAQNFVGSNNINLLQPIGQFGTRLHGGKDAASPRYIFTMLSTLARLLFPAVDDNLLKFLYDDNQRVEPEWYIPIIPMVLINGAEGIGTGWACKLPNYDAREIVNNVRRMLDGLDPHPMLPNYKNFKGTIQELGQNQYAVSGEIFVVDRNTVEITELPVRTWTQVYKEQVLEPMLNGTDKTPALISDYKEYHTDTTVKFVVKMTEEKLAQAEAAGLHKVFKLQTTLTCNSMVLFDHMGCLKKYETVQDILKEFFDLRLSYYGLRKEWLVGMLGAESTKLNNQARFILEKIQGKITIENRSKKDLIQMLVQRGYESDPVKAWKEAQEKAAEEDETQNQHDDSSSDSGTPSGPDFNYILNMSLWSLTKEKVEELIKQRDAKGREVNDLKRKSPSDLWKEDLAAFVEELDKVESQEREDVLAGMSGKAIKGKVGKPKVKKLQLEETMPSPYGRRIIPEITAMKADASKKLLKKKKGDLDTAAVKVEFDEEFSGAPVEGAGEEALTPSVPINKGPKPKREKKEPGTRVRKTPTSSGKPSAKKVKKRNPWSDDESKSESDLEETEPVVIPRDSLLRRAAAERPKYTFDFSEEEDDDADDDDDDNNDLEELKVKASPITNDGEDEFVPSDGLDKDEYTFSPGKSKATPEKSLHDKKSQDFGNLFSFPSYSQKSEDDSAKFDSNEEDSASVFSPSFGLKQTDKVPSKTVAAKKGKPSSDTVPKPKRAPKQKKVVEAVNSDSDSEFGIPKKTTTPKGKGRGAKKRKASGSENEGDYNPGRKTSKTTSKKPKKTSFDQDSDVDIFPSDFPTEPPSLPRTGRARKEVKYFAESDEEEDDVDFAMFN
Calls of active or inactive are those of the source.
Choose one outcome from this list and give only that: active, inactive

Answered cases to consult:
[
  {
    "compound": "COc1cc2nccc(Oc3ccc(NC(=O)NC4CC4)c(Cl)c3)c2cc1C(N)=O [LENVATINIB]",
    "assigned category": "inactive"
  },
  {
    "compound": "CN1CCN(c2ccc3nc(-c4c(N)c5c(F)cccc5[nH]c4=O)[nH]c3c2)CC1 [DOVITINIB]",
    "assigned category": "inactive"
  },
  {
    "compound": "Cc1c(F)cc(C(=O)NC2CC2)cc1-c1ccc(C(=O)NCC(C)(C)C)cn1 [LOSMAPIMOD]",
    "assigned category": "inactive"
  },
  {
    "compound": "CC[C@@H]1C(=O)N(C)c2cnc(Nc3ccc(C(=O)N[C@H]4CC[C@H](N5CCN(CC6CC6)CC5)CC4)cc3OC)nc2N1C(C)C [VOLASERTIB]",
    "assigned category": "inactive"
  }
]

QUERY: Tell me the assay call for Cc1nc(N)sc1-c1ccnc(Nc2ccc(N3CCOCC3)cc2)n1 [CYC-116] please.
RESULT: inactive

QUERY: Tell me the assay call for C[C@@H](Nc1cc(F)cc(F)c1)c1cc(C(=O)N(C)C)cc2c(=O)cc(N3CCOCC3)oc12 [AZD-8186] please.
RESULT: active

QUERY: Tell me the assay call for Cc1cc(Nc2cc(N3CCN(C)CC3)nc(/C=C/c3ccccc3)n2)n[nH]1 [ENMD-2076] please.
RESULT: inactive

QUERY: Tell me the assay call for COc1cc(CCc2cc(NC(=O)c3ccc(N4C[C@@H](C)N[C@@H](C)C4)cc3)n[nH]2)cc(OC)c1 [AZD-4547] please.
RESULT: inactive

QUERY: Tell me the assay call for CCS(=O)(=O)N1CC(CC#N)(n2cc(-c3ncnc4[nH]ccc34)cn2)C1 [BARICITINIB] please.
RESULT: inactive

QUERY: Tell me the assay call for Cc1ccc(-n2nc(C(C)(C)C)cc2NC(=O)NCc2cc(F)ccc2Oc2ccc3c(cnn3CCO)c2)cc1 [PEXMETINIB] please.
RESULT: inactive

QUERY: Tell me the assay call for COc1cc2nccc(Oc3ccc(NC(=O)Nc4cc(C)on4)c(Cl)c3)c2cc1OC [TIVOZANIB] please.
RESULT: inactive
